FYI, the data here is from PubChem BioAssay AID248.

T/C reference
- Test system: L1210 leukemia ip in BDF1 mice, survival T/C
- assay.name: NCI In Vivo Anticancer Drug Screen. Data for tumor model L1210 Leukemia (intraperitoneal) in B6D2F1 (BDF1) mice
- test.context: endpoint: mean survival time; dose: 200.0 mg/kg/injection; schedule: Q01DX001 (ip); vehicle: saline; higher = longer survival
Inconclusive results and toxic doses are left out.

[
  {
    "molecule": "Nc1cc(Cl)ccc1O",
    "T/C": "91 % of control"
  },
  {
    "molecule": "NCCCCC(N)C(=O)O (configuration not stated)",
    "T/C": "97 % of control"
  },
  {
    "molecule": "CCC(C)c1nc2c([nH]1)c(=O)n(C)c(=O)n2C (configuration not stated)",
    "T/C": "101 % of control"
  },
  {
    "molecule": "CC(=O)Nc1ncnc(NC(C)=O)c1N=O",
    "T/C": "102 % of control"
  },
  {
    "molecule": "Cc1cc(C)nc(CCSS(=O)(=O)O)c1",
    "T/C": "102 % of control"
  },
  {
    "molecule": "CC(C)(C)CC(C)(C)N(CSc1ccc([N+](=O)[O-])cc1)CSc1ccc([N+](=O)[O-])cc1",
    "T/C": "94 % of control"
  },
  {
    "molecule": "O=[N+]([O-])c1ccc(NCCNC(c2ccccc2)(c2ccccc2)c2ccccc2)c([N+](=O)[O-])c1",
    "T/C": "90 % of control"
  }
]
